All values here come from ChEMBL document CHEMBL1135824.

Assay: Effect (2 uM)on second-order rate constant that accelerated inhibition of factor Xa by antithrombin-CS (50 uM)complex

| Molecular string | second-order rate constant |
| --- | --- |
| CO[C@H]1O[C@H](COS(=O)(=O)O)[C@@H](O[C@H]2O[C@@H](C(=O)O)[C@@H](O[C@H]3O[C@H](COS(=O)(=O)O)[C@@H](O[C@H]4O[C@H](C(=O)O)C[C@H](O)[C@H]4O)[C@H](OS(=O)(=O)O)[C@H]3NS(=O)(=O)O)[C@H](O)[C@H]2OS(=O)(=O)O)[C@H](OS(=O)(=O)O)[C@H]1OS(=O)(=O)O | 4700 M⁻¹ s⁻¹ |
